FYI, the data here is from ChEMBL document CHEMBL3797052.

test system: CCRF-CEM; assay: Antiproliferative activity against human CCRF-CEM cells assessed as cell growth at 10^-4 M after 48 hrs by sulforhodamine B assay; assay type: functional; conditions: read-out: Activity
I'd be grateful if you could share measured growth at 100 µM for these entries.
Give bare numbers, in %.

Solved entries:
CNC(=O)c1cc(Oc2ccc3nc(NC(=O)c4cc(C(F)(F)F)cc(C(F)(F)F)c4)sc3c2)ccn1
25
CNC(=O)c1cc(Oc2ccc3nc(NC(=O)Nc4cc(C(F)(F)F)cc(C(F)(F)F)c4)sc3c2)ccn1
-36
CNC(=O)c1cc(Oc2ccc3nc(NC(=O)Nc4ccc(Cl)c(Cl)c4)sc3c2)ccn1
79

Read the next record carefully.
GET /values?item= `CNC(=O)c1cc(Oc2ccc3nc(NC(=O)Nc4ccc(Cl)c(C(F)(F)F)c4)sc3c2)ccn1` &system= CCRF-CEM returns growth at 100 µM: 53

###

test: Antiproliferative activity against human SW620 cells assessed as cell growth at 10^-4 M after 48 hrs by sulforhodamine B assay; format: functional; conditions: SW-620, 48 h, read-out: Activity
reported_property: growth at 100 µM (%)
One number for each entry, in %.

Solved entries:
CNC(=O)c1cc(Oc2ccc3nc(NC(=O)c4cc(C(F)(F)F)cc(C(F)(F)F)c4)sc3c2)ccn1
-10
CNC(=O)c1cc(Oc2ccc3nc(NC(=O)Nc4ccc(Cl)c(C(F)(F)F)c4)sc3c2)ccn1
42
CNC(=O)c1cc(Oc2ccc3nc(NC(=O)Nc4ccc(Cl)c(Cl)c4)sc3c2)ccn1
48

Read the next record carefully.
Record summary for `CNC(=O)c1cc(Oc2ccc3nc(NC(=O)Nc4cc(C(F)(F)F)cc(C(F)(F)F)c4)sc3c2)ccn1` : reported growth at 100 µM = -71

###

assay: Antiproliferative activity against human LOXIMVI cells assessed as growth inhibition after 48 hrs by sulforhodamine B assay; format: functional; conditions: LOX IMVI
I'd be grateful if you could share measured TGI for these entries.
Give bare numbers, in µM.

CNC(=O)c1cc(Oc2ccc3nc(NC(=O)Nc4cc(C(F)(F)F)cc(C(F)(F)F)c4)sc3c2)ccn1
2.53
CNC(=O)c1cc(Oc2ccc3nc(NC(=O)c4cc(C(F)(F)F)cc(C(F)(F)F)c4)sc3c2)ccn1
15.1
CNC(=O)c1cc(Oc2ccc(NC(=O)Nc3ccc(Cl)c(C(F)(F)F)c3)cc2)ccn1
3.16

Read the next record carefully.
Record summary for `CNC(=O)c1cc(Oc2ccc3nc(NC(=O)Nc4ccc(Cl)c(Cl)c4)sc3c2)ccn1` : reported TGI = 3.52

###

I'd be grateful if you could share measured growth at 0.1 µM for these entries.
tested on: A549; assay: Antiproliferative activity against human A549/ATCC cells assessed as cell growth at […] after 48 hrs by sulforhodamine B assay; assay type: functional; conditions: A549, 48 h, read-out: Activity
One number for each entry, in %.

Can you give me growth at 0.1 µM for all of these, one by one?
1. CNC(=O)c1cc(Oc2ccc3nc(NC(=O)Nc4ccc(Cl)c(Cl)c4)sc3c2)ccn1
2. CNC(=O)c1cc(Oc2ccc3nc(NC(=O)Nc4cc(C(F)(F)F)cc(C(F)(F)F)c4)sc3c2)ccn1
3. CNC(=O)c1cc(Oc2ccc3nc(NC(=O)Nc4ccc(Cl)c(C(F)(F)F)c4)sc3c2)ccn1
4. CNC(=O)c1cc(Oc2ccc3nc(NC(=O)c4cc(C(F)(F)F)cc(C(F)(F)F)c4)sc3c2)ccn1

96
109
105
101
